test system: HCT-116; experiment: MTT cytotoxicity assay in normoxia and hypoxia, HCT-116; assay type: cell-based, Human; conditions: Homo sapiens, HCT-116, read-out: Cytotoxicity (IC50), cell kill under hypoxia
Give IC50 for every item shown.
Be sure to follow the number with its unit.

Recorded IC50 for NCCCCCCNc1n[n+]([O-])c2ccccc2[n+]1[O-] , please?
62.1 µM

Also check NCCNc1n[n+]([O-])c2ccccc2[n+]1[O-]
22.4 µM

Also check Nc1n[n+]([O-])c2ccccc2[n+]1[O-] [TPZ, 3-amino-1,2,4-benzotriazine-1,4-dioxide, reference compound]
34.8 µM

Also check NCCCNc1n[n+]([O-])c2ccccc2[n+]1[O-]
54.8 µM

Also check NCCCCCNc1n[n+]([O-])c2ccccc2[n+]1[O-]
55.3 µM

Also check NCCCCCCCNc1n[n+]([O-])c2ccccc2[n+]1[O-]
40.8 µM

Also check NCCCCCCCCNc1n[n+]([O-])c2ccccc2[n+]1[O-]
44.8 µM

====

tested on: NCI-H460; experiment: MTT cytotoxicity assay in normoxia and hypoxia, NCI-H460; type: cell-based, Human; conditions: Homo sapiens, NCI-H460, 24 h, read-out: Cytotoxicity (IC50) NCI-H460 N
Give IC50 for every item shown.

Recorded IC50 for [O-][n+]1nc(NCCCCCNc2n[n+]([O-])c3ccccc3[n+]2[O-])nc2ccccc21 [Compound 9d] , please?
> 30 µM

Also check [O-][n+]1nc(NCCCCCCNc2n[n+]([O-])c3ccccc3[n+]2[O-])nc2ccccc21 [Compound 9e]
> 30 µM

Also check [O-][n+]1nc(NCCCCCCCNc2n[n+]([O-])c3ccccc3[n+]2[O-])nc2ccccc21 [Compound 9f]
> 30 µM
